Test system: NCI-H196 SCLC complex tumor spheroid viability
Experimental protocol: Anticancer human tumor NCI-H196 cell line growth inhibition;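 further: spheroids exposed to compounds for 7 days before readout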
Stated conditions: curve of first compound; second compound 3.16 µM
pIC50: −log10 of the molar value.
Result type: pIC50

Form field pIC50 for item COc1ccc([C@@H](O)c2cc(-c3ncnc4cc(N5CCOCC5)ccc34)c(F)cc2Cl)nn1 + Cn1nnc2c(C(N)=O)ncn2c1=O on NCI-H196 SCLC complex tumor spheroid viability: < 5.00

Form field pIC50 for item O=C(c1cc(Cc2n[nH]c(=O)c3ccccc23)ccc1F)N1CCN(C(=O)C2CC2)CC1 + Cn1nnc2c(C(N)=O)ncn2c1=O on NCI-H196 SCLC complex tumor spheroid viability: < 4.52

Form field pIC50 for item CNCc1ccc(-c2cc(-c3nc(-c4ccc(S(=O)(=O)C(C)C)cc4)cnc3N)on2)cc1 + Cn1nnc2c(C(N)=O)ncn2c1=O on NCI-H196 SCLC complex tumor spheroid viability: < 5.52

Form field pIC50 for item Cc1cc(C)c(CNC(=O)c2cc(-c3ccc(CN4CCOCC4)cc3)cc3c2cnn3C2CCCC2)c(=O)[nH]1 + Cn1nnc2c(C(N)=O)ncn2c1=O on NCI-H196 SCLC complex tumor spheroid viability: < 5.00

###

Field: viability, T/C. Provide a value for each of the compounds that follow.
Tested on: NCI-H196 SCLC complex tumor spheroid viability
Experimental protocol: Anticancer human tumor NCI-H196 cell line growth inhibition;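 further: spheroids exposed to compounds for 7 days before readout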;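 on viability, T/C: 100% = DMSO vehicle control wells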
Stated conditions: second compound 0.00949 µM; first compound 3 µM; stronger effect = lower value
Write the answer as a number in %, unit excluded.

Form field viability, T/C for item CNCc1ccc(-c2cc(-c3nc(-c4ccc(S(=O)(=O)C(C)C)cc4)cnc3N)on2)cc1 + CC[C@@]1(O)C(=O)OCc2c1cc1n(c2=O)Cc2cc3c(CN(C)C)c(O)ccc3nc2-1 on NCI-H196 SCLC complex tumor spheroid viability: 78.7

Form field viability, T/C for item Cn1ncnc1[C@H]1c2n[nH]c(=O)c3cc(F)cc(c23)N[C@@H]1c1ccc(F)cc1 + CC[C@@]1(O)C(=O)OCc2c1cc1n(c2=O)Cc2cc3c(CN(C)C)c(O)ccc3nc2-1 on NCI-H196 SCLC complex tumor spheroid viability: 102

Form field viability, T/C for item Cc1sc2c(c1C)C(c1ccc(Cl)cc1)=NC(CC(=O)Nc1ccc(O)cc1)c1nnc(C)n1-2 (centres undefined) + CC[C@@]1(O)C(=O)OCc2c1cc1n(c2=O)Cc2cc3c(CN(C)C)c(O)ccc3nc2-1 on NCI-H196 SCLC complex tumor spheroid viability: 23.7

Form field viability, T/C for item O=C(c1cc(Cc2n[nH]c(=O)c3ccccc23)ccc1F)N1CCN(C(=O)C2CC2)CC1 + CC[C@@]1(O)C(=O)OCc2c1cc1n(c2=O)Cc2cc3c(CN(C)C)c(O)ccc3nc2-1 on NCI-H196 SCLC complex tumor spheroid viability: 95.9

###

Tested on: NCI-H196 SCLC complex tumor spheroid viability
Experimental protocol: Anticancer human tumor NCI-H196 cell line growth inhibition;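 further: spheroids exposed to compounds for 7 days before readout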;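 on viability, T/C: 100% = DMSO vehicle control wells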
Stated conditions: second compound 0.00949 µM; first compound 1 µM; stronger effect = lower value
Result type: viability, T/C (%)
Write the answer as a number in %, unit excluded.

Note to self: viability, T/C recorded for CC(C)n1c(=O)n(C)c2cnc3cc(F)c(-c4ccc(OCCCN5CCCCC5)nc4)cc3c21 + CC[C@@]1(O)C(=O)OCc2c1cc1n(c2=O)Cc2cc3c(CN(C)C)c(O)ccc3nc2-1 was 112

Note to self: viability, T/C recorded for CC1COCCN1c1cc(-c2ccnn2C)c2ccnc(-c3ccn[nH]3)c2n1 (stereo unspecified) + CC[C@@]1(O)C(=O)OCc2c1cc1n(c2=O)Cc2cc3c(CN(C)C)c(O)ccc3nc2-1 was 51.4

Note to self: viability, T/C recorded for Cc1cc(C)c(CNC(=O)c2cc(-c3ccc(CN4CCOCC4)cc3)cc3c2cnn3C2CCCC2)c(=O)[nH]1 + CC[C@@]1(O)C(=O)OCc2c1cc1n(c2=O)Cc2cc3c(CN(C)C)c(O)ccc3nc2-1 was 88.7

Note to self: viability, T/C recorded for [2H]c1nc(C)nc([2H])c1-c1cc(NC[C@@H](C)c2cccc3c(C(=O)NC)ccnc23)ncn1 + CC[C@@]1(O)C(=O)OCc2c1cc1n(c2=O)Cc2cc3c(CN(C)C)c(O)ccc3nc2-1 was 95.5

Note to self: viability, T/C recorded for COc1cc(C)[nH]c(=O)c1CN1CCc2c(Cl)cc(C(OC)C3COC3)c(Cl)c2C1=O (stereo unspecified) + CC[C@@]1(O)C(=O)OCc2c1cc1n(c2=O)Cc2cc3c(CN(C)C)c(O)ccc3nc2-1 was 93.3

Note to self: viability, T/C recorded for COc1ccc([C@@H](O)c2cc(-c3ncnc4cc(N5CCOCC5)ccc34)c(F)cc2Cl)nn1 + CC[C@@]1(O)C(=O)OCc2c1cc1n(c2=O)Cc2cc3c(CN(C)C)c(O)ccc3nc2-1 was 88.9

Data provenance is PubChem BioAssay AID1845208.
